src = patent US20090232838A1

# TARGET_ENTITY: hMC4-R (Homo sapiens)
# Construct: expressed in transfected cells; host or cells: CHO-K1
# Sequence (P32245 whole entry): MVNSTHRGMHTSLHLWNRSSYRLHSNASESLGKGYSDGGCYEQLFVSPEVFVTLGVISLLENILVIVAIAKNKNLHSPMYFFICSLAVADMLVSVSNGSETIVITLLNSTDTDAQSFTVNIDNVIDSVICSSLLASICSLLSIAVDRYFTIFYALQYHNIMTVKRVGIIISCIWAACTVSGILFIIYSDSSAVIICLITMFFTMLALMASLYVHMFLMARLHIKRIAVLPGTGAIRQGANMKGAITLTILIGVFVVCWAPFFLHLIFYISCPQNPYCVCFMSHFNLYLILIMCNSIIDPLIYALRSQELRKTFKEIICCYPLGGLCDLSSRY
# ASSAY_DETAILS: cyclic AMP bioassay, hMC4-R
# Format: cell-based
Where a SMILES comes first, the peptide text is derived from it. Bridges are numbered along the chain shown (N, C = ends). [ ]: non-standard residue; d: D form. 1Nal = N[C@@H](Cc1cccc2ccccc12)C(=O)O; 2Nal = N[C@@H](Cc1ccc2ccccc2c1)C(=O)O; d2Nal = N[C@H](Cc1ccc2ccccc2c1)C(=O)O; Bta = N[C@@H](Cc1csc2ccccc12)C(=O)O; Aib = CC(C)(N)C(=O)O
Below is a list of entries, each paired with its recorded Kb value.
REPORTED_ENDPOINT: Kb (nM)

1) CC(=O)N[C@H]1CSSC[C@@H](C(=O)N2CCC[C@H]2C(=O)N2CCC[C@H]2C(=O)N[C@@H](CCCCN)C(=O)N[C@@H](CC(=O)O)C(N)=O)NC(=O)[C@H](C)NC(=O)[C@H](Cc2ccc3ccccc3c2)NC(=O)[C@H](CCCNC(=N)N)NC(=O)[C@@H](Cc2ccc3ccccc3c2)NC(=O)[C@H](Cc2c[nH]cn2)NC(=O)[C@H](CCC(=O)O)NC1=O (Ac-CEH[d2Nal]R[2Nal]ACPPKD-NH2; disulfide 1-8) | 12.2
2) CC(=O)N[C@H]1CSSC[C@@H](C(=O)N2CCC[C@H]2C(=O)N2CCC[C@H]2C(=O)N[C@@H](CCCCN)C(=O)N[C@@H](CC(=O)O)C(N)=O)NC(=O)C(C)(C)NC(=O)[C@H](Cc2ccc3ccccc3c2)NC(=O)[C@H](CCCNC(=N)N)NC(=O)[C@@H](Cc2ccc3ccccc3c2)NC(=O)[C@H](Cc2c[nH]cn2)NC(=O)[C@H](CCC(=O)O)NC1=O (Ac-CEH[d2Nal]R[2Nal][Aib]CPPKD-NH2; disulfide 1-8) | 4.52
3) CC(=O)N[C@H]1CSSC[C@@H](C(=O)N2CCC[C@H]2C(=O)N2CCC[C@H]2C(=O)N[C@@H](CCCCN)C(=O)N[C@@H](CC(=O)O)C(N)=O)NC(=O)[C@H](C)NC(=O)[C@H](Cc2csc3ccccc23)NC(=O)[C@H](CCCNC(=N)N)NC(=O)[C@@H](Cc2ccc3ccccc3c2)NC(=O)[C@H](Cc2c[nH]cn2)NC(=O)[C@H](CCC(=O)O)NC1=O (Ac-CEH[d2Nal]R[Bta]ACPPKD-NH2; disulfide 1-8) | 4.56
4) CC(=O)N[C@H]1CSSC[C@@H](C(=O)N2CCC[C@H]2C(=O)N2CCC[C@H]2C(=O)N[C@@H](CCCCN)C(=O)N[C@@H](CC(=O)O)C(N)=O)NC(=O)[C@H](C)NC(=O)[C@H](Cc2cccc3ccccc23)NC(=O)[C@H](CCCNC(=N)N)NC(=O)[C@@H](Cc2ccc3ccccc3c2)NC(=O)[C@H](Cc2c[nH]cn2)NC(=O)[C@H](CCC(=O)O)NC1=O (Ac-CEH[d2Nal]R[1Nal]ACPPKD-NH2; disulfide 1-8) | 5.92

---

# TARGET_ENTITY: hMC3-R (Homo sapiens, UniProt P41968)
# Sequence (P41968 whole entry): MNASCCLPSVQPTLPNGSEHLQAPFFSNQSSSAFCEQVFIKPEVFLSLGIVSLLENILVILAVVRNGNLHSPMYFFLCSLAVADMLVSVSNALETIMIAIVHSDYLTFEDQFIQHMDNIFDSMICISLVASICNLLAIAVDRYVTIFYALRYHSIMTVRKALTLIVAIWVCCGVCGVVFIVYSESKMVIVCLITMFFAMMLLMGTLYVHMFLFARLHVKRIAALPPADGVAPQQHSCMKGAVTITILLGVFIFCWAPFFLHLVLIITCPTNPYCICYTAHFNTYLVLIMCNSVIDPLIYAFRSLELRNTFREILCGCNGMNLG
# ASSAY_DETAILS: cyclic AMP bioassay, hMC3-R
REPORTED_ENDPOINT: EC50 (nM)

1. CCCC[C@H](NC(C)=O)C(=O)N[C@H]1CSSC[C@@H](C(=O)NCCC(=O)N[C@@H](CCCNC(=N)N)C(=O)N[C@@H](CCCNC(=N)N)C(=O)N[C@@H](CCCCN)C(=O)N[C@@H](CCCNC(=N)N)C(=O)N[C@@H](CCCNC(=N)N)C(=O)N[C@@H](CCC(N)=O)C(=O)N[C@@H](CCCNC(=N)N)C(=O)N[C@@H](CCCNC(=N)N)C(=O)N[C@@H](CCCNC(=N)N)C(N)=O)NC(=O)[C@H](Cc2c[nH]c3ccccc23)NC(=O)[C@H](CCCNC(=N)N)NC(=O)[C@@H](Cc2ccccc2)NC(=O)[C@H](Cc2c[nH]cn2)NC(=O)[C@@H](C)NC1=O | 1.39
